Hey, just so you know, these numbers are from patent US20080152587A1.

# assayedSystem: T1, soluble recombinant human uPAR/His6 (R&D Systems, Cat. # 807-UK-100) (human, UniProt Q03405 23-303)
# T1 construct: range 1-303; Bought protein; also called soluble uPAR; hu-uPAR
# T1 sequence (Q03405 other isoform, or with tags, fused parts or gaps limits assumed, form in doubt): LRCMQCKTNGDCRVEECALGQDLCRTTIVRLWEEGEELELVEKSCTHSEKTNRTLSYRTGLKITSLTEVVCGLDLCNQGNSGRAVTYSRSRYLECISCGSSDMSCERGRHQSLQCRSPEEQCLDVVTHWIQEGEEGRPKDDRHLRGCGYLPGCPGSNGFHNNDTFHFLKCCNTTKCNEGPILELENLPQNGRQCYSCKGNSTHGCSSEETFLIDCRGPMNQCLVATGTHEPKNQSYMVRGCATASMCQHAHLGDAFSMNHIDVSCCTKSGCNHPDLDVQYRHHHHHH
# testName: limited antigen ELISA, uPAR coat 80 ng/mL, sample 1:25
# maps each entry to its LA at 80 ng/ml

>  <binder>
anti-uPAR monoclonal antibody 1.113.2 (antibody, V domains shown) VH: QVQLVESGGGVVQPGRSLRLSCAASGFTFSSYGMHWVRQAPGKGLEWVAVIWYDGSNKYYADSVKGRFTISRDNSKNTLYLQMNSLRAEDTAVYYCARDLAALYYYYGMHVWGQGTTVTVSS VL: EIVMTQSPATLSVSPGERATLSCRASQSFSSNLAWYQQKPGQAPRLLIYGASTRATGIPARFSGSGSGTEFTLTISSLQSEDFAVYYCQQNNNWPRTFGQGTKVEIK

>  <LA at 80 ng/ml>
1.8

$$$$
>  <binder>
anti-uPAR monoclonal antibody 1.4.2 (antibody, V domains shown) VH: EVQLVESGGGLVQPGGSLRLSCAASGFTFSSYDMHWVRQATGKGLEWVSAIGTAGDTYYPGSVKGRFTISRENAKNSLYLQMNSLRAGDTAVYYCAREGDYSNYFTMVRGVTYGMDVWGQGTTVTVSS VL: DIQLTQSPSSLCASVGDRITITCRASQGISKYLAWFQQKPGKAPKSLIYGASSLQSGVPAKFSGSGSGTDFTLTISSLQPEDFATYYCQQYNSYPLTFGGGTKVEIK

>  <LA at 80 ng/ml>
0.66

$$$$
>  <binder>
anti-uPAR monoclonal antibody 3.8.3 (antibody, V domains shown) VH: EVQLVESGGGLVQPGGSLRLSCAASGFTFSSYWMSWVRQAPGKGLEWVANIKQHGSEKYYVDSVKGRFTISRDNAKNSLYLQMNSLRAEDTAVYYCAREEAYYYDNSGYYWYFDLWARGTLVTVSS VL: DIQMTQSPSSVSASIGDRVTITCRASQGISSWLAWYQQKPGKTPKLLIYAASSLQSGVPSRFSGSGSGTDFTLTISSLQPEDFATYYCQQADSFPWTFGQGTKVEIK

>  <LA at 80 ng/ml>
2.57

$$$$
